Hey, just so you know, these numbers are from patent US11078204B2.

targetDesc: PI3Kγ (p110γ) Recombinant Human Protein (Homo sapiens (Human), UniProt P48736)
Sequence (P48736 whole entry): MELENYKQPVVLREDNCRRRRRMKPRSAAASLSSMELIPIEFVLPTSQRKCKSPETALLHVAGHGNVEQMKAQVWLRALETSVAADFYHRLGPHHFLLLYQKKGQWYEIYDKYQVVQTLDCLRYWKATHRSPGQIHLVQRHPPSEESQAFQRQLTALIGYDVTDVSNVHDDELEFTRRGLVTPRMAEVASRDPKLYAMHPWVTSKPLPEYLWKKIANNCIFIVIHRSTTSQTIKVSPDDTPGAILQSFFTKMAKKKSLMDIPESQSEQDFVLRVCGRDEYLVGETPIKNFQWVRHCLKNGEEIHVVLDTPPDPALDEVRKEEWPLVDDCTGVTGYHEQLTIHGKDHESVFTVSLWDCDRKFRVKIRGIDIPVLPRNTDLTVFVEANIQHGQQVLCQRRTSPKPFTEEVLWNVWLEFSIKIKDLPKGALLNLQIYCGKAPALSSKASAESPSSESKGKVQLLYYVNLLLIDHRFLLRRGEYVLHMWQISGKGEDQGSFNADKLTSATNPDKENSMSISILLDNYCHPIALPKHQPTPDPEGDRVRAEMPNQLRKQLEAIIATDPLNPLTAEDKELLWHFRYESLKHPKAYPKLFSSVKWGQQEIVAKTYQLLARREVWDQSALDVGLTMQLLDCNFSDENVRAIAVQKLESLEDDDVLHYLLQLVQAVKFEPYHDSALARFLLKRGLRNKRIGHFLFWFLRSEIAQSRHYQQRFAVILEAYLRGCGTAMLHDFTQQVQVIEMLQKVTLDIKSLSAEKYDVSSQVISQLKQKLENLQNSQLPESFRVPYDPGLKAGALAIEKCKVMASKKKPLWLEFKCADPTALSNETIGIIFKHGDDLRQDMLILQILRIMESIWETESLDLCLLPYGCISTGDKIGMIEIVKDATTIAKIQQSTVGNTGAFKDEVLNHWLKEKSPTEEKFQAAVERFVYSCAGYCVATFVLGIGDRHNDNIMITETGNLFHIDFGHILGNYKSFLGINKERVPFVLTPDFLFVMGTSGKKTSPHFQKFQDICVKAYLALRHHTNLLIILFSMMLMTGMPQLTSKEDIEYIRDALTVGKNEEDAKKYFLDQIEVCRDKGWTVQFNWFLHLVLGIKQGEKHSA
assayExplanation: PI3K-γ Scintillation Proximity Assay
recordedConditions: 20 μM PIP2, 2 μM ATP, 13 nM PI3Kγ, 120 min
Where a name gives a salt, the structure may show the parent alone.
Documented IC50 across a set of compounds

CC(C1CC1)n1cc2cc(-c3cnc4c(N)ncnn34)ncc2n1 (centres unmarked) [Example 26, trifluoroacetate]
≤ 100 nM
CC(C)c1cn2cc(-c3cnc4c(N)ncnn34)ccc2n1
≤ 500 nM
C[C@@H](C1CC1)N1Cc2cc(-c3cnc4c(N)ncnn34)ccc2C1=O
≤ 100 nM
Cc1ncc(-c2cn3c(-c4cc5c(c(S(C)(=O)=O)c4)C(=O)N([C@@H](C)C4CC4)C5)cnc3c(N)n2)o1 (single isomer, unassigned) [Example 33, trifluoroacetate salt]
≤ 100 nM
CC(c1ccccc1)N1Cc2cc(-c3cnc4c(N)ncnn34)ccc2C1=O (racemic) [Example 12, trifluoroacetate salt]
≤ 100 nM
C[C@@H](C1CC1)N1Cc2cc(-c3cnc4c(N)nc(C(=O)N5CC(O)C5)cn34)ccc2C1=O (single isomer, unassigned) [Example 30, trifluoroacetate salt]
≤ 100 nM

Dear colleague, I am looking for the recorded IC50 of the following compound: C[C@@H](C1CC1)N1Cc2cc(-c3cnc4c(N)nc(C(F)(F)F)cn34)cc(C(O)(CO)C(F)(F)F)c2C1=O (mixture of isomers) [Example 40, trifluoroacetate salt]
≤ 100 nM

Given CC(=O)NCC(C1CC1)N1Cc2cc(-c3cnc4c(N)nc(C(F)(F)F)cn34)ccc2C1=O (racemic) [Example 44, trifluoroacetate salt] , state its recorded IC50.
< 2000 nM

// returns reported IC50 for input Nc1nc(C(F)(F)F)cn2c(-c3ccc4c(c3)CNC4=O)cnc12 [Example 4, trifluoroacetate salt]
< 2000 nM

---

targetDesc: PI3Kγ (p110γ) Recombinant Human Protein (Homo sapiens (Human))
assayExplanation: PI3K-γ Scintillation Proximity Assay
recordedConditions: 20 μM PIP2, 2 μM ATP, 13 nM PI3Kγ, 120 min
pIC50: −log10 of the molar value. Structures can show the parent of a compound that is named as a salt.
Entries and their pIC50 values follow.

I am curious: what pIC50 value has been reported for C[C@@H](C1CC1)N1Cc2cc(-c3cnc4c(N)nc(-c5cn[nH]c5)cn34)cc(S(C)(=O)=O)c2C1=O [Example 38, trifluoroacetate salt] ?
≥ 7.00

Quick one: pIC50 of Cc1[nH]ncc1-c1cn2c(-c3cc4c(c(S(C)(=O)=O)c3)C(=O)N([C@@H](C)C3CC3)C4)cnc2c(N)n1 [Example 37, trifluoroacetate salt] ?
≥ 7.00

Given the entry C[C@@H](C1CC1)N1Cc2cc(-c3cnc4c(N)ncnn34)cc(S(C)(=O)=O)c2C1=O , report its measured pIC50.
≥ 7.00

---

Attribute: pIC50
targetDesc: PI3Kδ (p110δ/p85α) Recombinant Human Protein (Homo sapiens (Human), UniProt O00329)
Sequence (O00329 whole entry): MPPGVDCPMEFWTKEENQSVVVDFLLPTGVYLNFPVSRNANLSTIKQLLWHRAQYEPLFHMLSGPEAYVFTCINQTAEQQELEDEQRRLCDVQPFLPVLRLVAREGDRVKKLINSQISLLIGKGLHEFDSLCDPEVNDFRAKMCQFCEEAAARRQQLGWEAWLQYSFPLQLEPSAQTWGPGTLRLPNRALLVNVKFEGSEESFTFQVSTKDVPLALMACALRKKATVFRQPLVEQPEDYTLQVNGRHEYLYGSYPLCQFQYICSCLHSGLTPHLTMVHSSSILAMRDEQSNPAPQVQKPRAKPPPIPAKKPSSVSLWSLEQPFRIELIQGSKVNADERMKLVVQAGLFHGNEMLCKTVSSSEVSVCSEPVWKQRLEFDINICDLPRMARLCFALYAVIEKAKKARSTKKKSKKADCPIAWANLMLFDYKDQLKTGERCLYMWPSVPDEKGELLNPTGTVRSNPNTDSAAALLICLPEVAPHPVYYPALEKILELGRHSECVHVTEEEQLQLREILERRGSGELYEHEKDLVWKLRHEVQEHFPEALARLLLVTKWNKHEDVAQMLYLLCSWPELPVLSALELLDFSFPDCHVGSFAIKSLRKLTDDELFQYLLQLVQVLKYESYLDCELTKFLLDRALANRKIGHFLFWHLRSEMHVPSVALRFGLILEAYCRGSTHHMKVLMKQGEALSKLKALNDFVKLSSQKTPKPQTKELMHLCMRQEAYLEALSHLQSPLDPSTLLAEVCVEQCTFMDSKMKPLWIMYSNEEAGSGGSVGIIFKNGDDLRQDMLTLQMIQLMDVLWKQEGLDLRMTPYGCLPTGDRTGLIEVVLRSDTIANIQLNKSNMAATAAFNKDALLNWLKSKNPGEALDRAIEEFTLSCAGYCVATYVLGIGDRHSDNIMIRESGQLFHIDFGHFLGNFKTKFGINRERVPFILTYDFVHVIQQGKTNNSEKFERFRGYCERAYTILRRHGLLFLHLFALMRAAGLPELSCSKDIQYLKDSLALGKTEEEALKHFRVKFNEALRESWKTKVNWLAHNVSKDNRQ
Sequence (P27986 whole entry partner): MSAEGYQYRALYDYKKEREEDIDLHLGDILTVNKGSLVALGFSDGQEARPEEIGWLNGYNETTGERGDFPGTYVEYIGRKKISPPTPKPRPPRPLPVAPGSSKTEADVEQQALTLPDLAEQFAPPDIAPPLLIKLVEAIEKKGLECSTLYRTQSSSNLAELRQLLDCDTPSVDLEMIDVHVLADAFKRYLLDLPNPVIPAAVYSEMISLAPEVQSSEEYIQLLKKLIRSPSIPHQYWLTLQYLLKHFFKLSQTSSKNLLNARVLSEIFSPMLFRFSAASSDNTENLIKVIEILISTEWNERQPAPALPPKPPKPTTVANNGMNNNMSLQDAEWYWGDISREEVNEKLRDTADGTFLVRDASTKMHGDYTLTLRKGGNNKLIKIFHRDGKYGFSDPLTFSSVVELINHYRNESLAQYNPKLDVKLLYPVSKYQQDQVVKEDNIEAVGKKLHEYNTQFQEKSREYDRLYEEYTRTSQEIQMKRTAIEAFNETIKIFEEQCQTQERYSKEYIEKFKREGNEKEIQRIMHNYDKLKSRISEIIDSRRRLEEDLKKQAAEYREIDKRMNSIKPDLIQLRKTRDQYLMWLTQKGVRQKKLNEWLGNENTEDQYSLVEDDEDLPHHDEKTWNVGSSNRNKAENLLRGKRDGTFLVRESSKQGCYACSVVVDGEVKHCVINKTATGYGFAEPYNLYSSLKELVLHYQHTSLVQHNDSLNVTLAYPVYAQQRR
assayExplanation: PI3Kδ Scintillation Proximity Assay
Format: biochemical
recordedConditions: 20 μM PIP2, 2 μM ATP, 3.4 nM PI3Kδ, 120 min
pIC50: −log10 of the molar value. Counter-ions that a name gives are not always drawn.

Item CC(=O)c1cc(-c2cnc3c(N)ncnn23)cc2c1C(=O)N([C@@H](C)C1CC1)C2 [Example 15, trifluoroacetate salt] has what recorded pIC50?
≥ 6.30

---

targetDesc: PI3Kγ (p110γ) Recombinant Human Protein (Homo sapiens (Human))
assayExplanation: PI3K-γ Scintillation Proximity Assay
recordedConditions: 20 μM PIP2, 2 μM ATP, 13 nM PI3Kγ, 120 min
Text: Example B. PI3K-γ Scintillation Proximity Assay [γ-^33P]ATP (10 mCi/mL) and Wheat Germ Agglutinin (WGA) YSi SPA Scintillation Beads was purchased from Perkin Elmer (Waltham, Mass.). Lipid kinase substrate, D-myo-Phosphatidylinositol 4,5-bisphosphate (PtdInS(4,5)P2)D (+)-sn-1,2-di-O-octanoylglyceryl, 3-O-phospho linked (PIP2), CAS 204858-53-7, was purchased from Echelon Biosciences (Salt Lake City, Utah). […]
Structures can show the parent of a compound that is named as a salt.
experimentalReadout: IC50

Nc1nc(C(F)(F)F)cn2c(-c3ccc4c(c3)CN(C(C(=O)O)C3CC3)C4=O)cnc12 (racemic) [Example 47, trifluoroacetate salt]
< 2000 nM
CC(C1CC1)n1nc2ccc(-c3cnc4c(N)ncnn34)cc2n1 (racemic) [Example 20, trifluoroacetate salt]
≤ 500 nM
CC(C)NC(=O)c1cn2c(-c3cc4c(c(S(C)(=O)=O)c3)C(=O)N([C@@H](C)C3CC3)C4)cnc2c(N)n1 (single isomer, unassigned) [Example 28, trifluoroacetate salt]
≤ 100 nM
C[C@@H](C1CC1)N1Cc2cc(-c3cnc4c(N)nc(C(F)(F)F)cn34)ccc2C1=O [Example 5]
≤ 100 nM
CC(C1CC1)n1cc2cc(-c3cnc4c(N)ncnn34)cnc2n1 (stereo not shown) [Example 25, trifluoroacetate salt]
≤ 100 nM
C[C@@H](C1CC1)N1Cc2cc(-c3cnc4c(N)nc(C(=O)N5CCC5)cn34)cc(S(C)(=O)=O)c2C1=O [Example 29a, trifluoroacetate salt]
≤ 100 nM
C[C@@H](C1CC1)N1Cc2cc(-c3cnc4c(N)nc(C(=O)NC56CC(C5)C6)cn34)cc(S(C)(=O)=O)c2C1=O (single isomer, unassigned) [Example 29b, trifluoroacetate salt]
≤ 100 nM
C[C@@H](C1CC1)N1Cc2cc(-c3cnc4c(N)nc(-c5cnn(C)c5)cn34)cc(S(C)(=O)=O)c2C1=O [Example 35, trifluoroacetate salt]
≤ 100 nM
Cc1cc(-c2cnc3c(N)ncnn23)cc2cn(C(C)C3CC3)nc12 (racemic) [Example 18, trifluoroacetate salt]
≤ 100 nM
CC(C)c1nc2ccc(-c3cnc4c(N)ncnn34)cn2n1 [Example 21, trifluoroacetate salt]
≤ 500 nM

Any idea what IC50 was measured for C[C@@H](C1CC1)N1Cc2cc(-c3cnc4c(N)nc(C(=O)N5CC(C)(C)C5)cn34)cc(S(C)(=O)=O)c2C1=O [Example 29c, trifluoroacetate salt] ?
≤ 100 nM

What value of IC50 has been recorded for this entry: CC(C)N1Cc2cc(-c3cnc4c(N)nc(C(F)(F)F)cn34)ccc2C1=O [Example 13, trifluoroacetate salt]
≤ 100 nM

Give its IC50 value. Item: CC(C)(C)OC(=O)NCC(C1CC1)N1Cc2cc(-c3cnc4c(N)nc(C(F)(F)F)cn34)ccc2C1=O (racemic) [Example 41]
≤ 500 nM

Would you kindly share the measured IC50 for C[C@@H](C1CC1)N1Cc2cc(-c3cnc4c(N)nc(C(=O)NC5CCOCC5)cn34)cc(S(C)(=O)=O)c2C1=O [Example 29, trifluoroacetate salt] ?
≤ 100 nM

Can you look up the measured IC50 of C[C@@H](C1CC1)N1Cc2cc(-c3cnc4c(N)nc(-c5ccnn5C)cn34)cc(S(C)(=O)=O)c2C1=O [Example 36, trifluoroacetate salt] for me?
≤ 100 nM

# query: IC50 of entry C[C@@H](C1CC1)N1Cc2cc(-c3cnc4c(N)nc(C(=O)N5CC(F)(F)C5)cn34)cc(S(C)(=O)=O)c2C1=O [Example 29d, trifluoroacetate salt]
≤ 100 nM

Return reported IC50; argument: Cc1ncc(-c2cn3c(-c4cc5c(c(S(C)(=O)=O)c4)C(=O)N([C@@H](C)C4CC4)C5)cnc3c(N)n2)s1 [Example 34, trifluoroacetate salt]
≤ 100 nM

---

targetDesc: PI3Kδ (p110δ/p85α) Recombinant Human Protein (Homo sapiens (Human), UniProt O00329)
assayExplanation: PI3Kδ Scintillation Proximity Assay
recordedConditions: 20 μM PIP2, 2 μM ATP, 3.4 nM PI3Kδ, 120 min
pIC50: −log10 of the molar value. Counter-ions that a name gives are not always drawn.
Catalogue of pIC50 values

Below are worked cases with known answers.
CNC(=O)C(C1CC1)N1Cc2cc(-c3cnc4c(N)nc(C(F)(F)F)cn34)ccc2C1=O (racemic) [Example 45, trifluoroacetate salt]
≤ 5.70
C[C@@H](C1CC1)N1Cc2cc(-c3cnc4c(N)ncnn34)ccc2C1=O [Example 6]
≤ 5.70
C[C@@H](C1CC1)N1Cc2cc(-c3cnc4c(N)ncnn34)cc(Cl)c2C1=O [Example 7]
≥ 6.30
CCN1Cc2cc(-c3cnc4c(N)nc(C(F)(F)F)cn34)ccc2C1=O [Example 9, trifluoroacetate salt]
> 5.70
CC(C)c1cc2cc(-c3cnc4c(N)ncnn34)ccn2n1 [Example 23, trifluoroacetate salt]
≤ 5.70
CC(C)c1nc2ccc(-c3cnc4c(N)ncnn34)cn2n1 [Example 21, trifluoroacetate salt]
≤ 5.70

Which pIC50 value belongs to CC(C)(C)OC(=O)NCC(C1CC1)N1Cc2cc(-c3cnc4c(N)nc(C(F)(F)F)cn34)ccc2C1=O (racemic) [Example 41] ?
≤ 5.70

I have this compound here, C[C@@H](C1CC1)N1Cc2cc(-c3cnc4c(N)nc(C(=O)NC5CC(O)C5)cn34)ccc2C1=O (stereo partly shown) [Example 31, trifluoroacetate salt] , and I need its recorded pIC50.
≤ 5.70

Value lookup for pIC50; key = CC(c1cn2cc(-c3cnc4c(N)ncnn34)ccc2n1)C1CC1 (stereo not shown) [Example 27, trifluoroacetate salt]
≤ 5.70

May I ask what pIC50 has been recorded for C[C@@H](C1CC1)N1Cc2cc(-c3cnc4c(N)nc(-c5ccnn5C)cn34)cc(S(C)(=O)=O)c2C1=O [Example 36, trifluoroacetate salt] ?
≥ 6.30
